# Tested system: ERβ (Homo sapiens (Human))
# Method description: Cell-based ERβ luminescence antagonist assay (+E2)
pIC50: −log10 of the molar value.
Measured pIC50 values are reported for all entries that follow.

Take a look at these entries with their results.
Compound: OCCC1CCCC(c2ccc(O)cc2)CC1 (stereo not drawn)
pIC50: < 5.00

Compound: O/N=C1/CCCC(c2ccc(O)cc2)CC1 (stereo not drawn)
pIC50: < 5.00

Now consider the entry below.
Qu. # return recorded pIC50 for input OCC1CCC[C@@H](c2ccc(O)cc2)CC1 (stereo partly drawn)
Ans. < 4.00

====

# Tested system: ERβ (Homo sapiens (Human), UniProt Q92731)
# Sequence (Q92731 whole entry): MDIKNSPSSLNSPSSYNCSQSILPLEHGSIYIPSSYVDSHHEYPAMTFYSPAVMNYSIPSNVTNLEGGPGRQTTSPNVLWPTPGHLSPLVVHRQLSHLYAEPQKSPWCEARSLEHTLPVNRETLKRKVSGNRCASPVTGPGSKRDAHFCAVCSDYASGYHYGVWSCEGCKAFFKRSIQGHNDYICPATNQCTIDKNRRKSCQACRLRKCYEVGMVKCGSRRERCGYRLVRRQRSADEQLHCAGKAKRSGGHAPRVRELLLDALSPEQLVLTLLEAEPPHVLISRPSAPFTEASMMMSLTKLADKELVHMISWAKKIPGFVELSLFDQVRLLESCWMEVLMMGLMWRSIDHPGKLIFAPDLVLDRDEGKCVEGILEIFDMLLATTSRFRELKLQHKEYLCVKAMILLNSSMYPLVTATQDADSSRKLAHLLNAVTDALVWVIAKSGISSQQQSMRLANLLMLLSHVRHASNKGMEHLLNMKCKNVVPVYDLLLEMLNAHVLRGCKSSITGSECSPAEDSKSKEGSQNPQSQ
# Method description: Cell-based ERβ luminescence antagonist assay (+E2)
# Experimental context: 160 pM E2 added; read-out: ERβ antagonist IC50
Measured IC50 values are reported for all entries that follow.
Respond with the bare value in nM.

Compound: CC[C@H](C)C1=CC[C@H]2[C@@H]3CCc4cc(O)ccc4[C@H]3CC[C@]12C [Compound 7]
Tested system: ERβ (Homo sapiens (Human), UniProt Q92731)
Measurement units: nM
IC50: 70

Now consider the entry below.
Qu. # return recorded IC50 for input C[C@@H](CCO)C1=CC[C@H]2[C@@H]3CCc4cc(O)ccc4[C@H]3CC[C@]12C [Compound 11]
Ans. 275

====

# Tested system: ERα (Homo sapiens (Human))
# Sequence (P03372 whole entry): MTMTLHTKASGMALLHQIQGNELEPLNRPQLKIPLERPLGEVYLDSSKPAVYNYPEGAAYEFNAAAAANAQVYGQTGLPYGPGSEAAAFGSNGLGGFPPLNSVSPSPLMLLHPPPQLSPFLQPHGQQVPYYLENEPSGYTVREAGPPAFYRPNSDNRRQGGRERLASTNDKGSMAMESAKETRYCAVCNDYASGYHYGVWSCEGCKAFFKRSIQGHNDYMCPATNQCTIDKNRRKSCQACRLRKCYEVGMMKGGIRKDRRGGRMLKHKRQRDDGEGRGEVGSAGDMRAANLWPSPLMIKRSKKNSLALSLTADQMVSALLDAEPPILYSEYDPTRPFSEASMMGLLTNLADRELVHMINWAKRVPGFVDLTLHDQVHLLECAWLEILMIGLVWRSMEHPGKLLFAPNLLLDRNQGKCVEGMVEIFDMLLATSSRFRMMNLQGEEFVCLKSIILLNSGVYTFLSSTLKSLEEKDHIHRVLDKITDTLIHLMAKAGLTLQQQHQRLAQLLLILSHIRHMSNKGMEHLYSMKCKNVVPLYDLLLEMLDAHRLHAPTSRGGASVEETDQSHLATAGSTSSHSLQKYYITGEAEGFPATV
# Method description: Cell-based ERα luminescence (luciferase reporter) agonist assay
# Description: ERα and ERβ assay kits for cell-based assays (Indigo Biosciences) allowed for investigation into the functional activity (i.e. agonist and/or antagonist) of the ligands identified to bind based on the initial fluorescence polarization displacement assay. Briefly, the cells contained a luciferase reporter gene that was functionally linked to either the ERα or ERβ-responsive promoter. By quantifying the luciferase expression via luminescence, the change in ER activity could be quantified. […]
Measured pIC50 values are reported for all entries that follow.
The meaning of pIC50 here: minus log10 of the concentration in molar units.

Compound: CCCOC(=O)C1CC[C@H]2[C@@H]3CCc4cc(O)ccc4[C@H]3CC[C@]12C (some centres unmarked)
Experimental value: 7.04

Qu. # return recorded pIC50 for input CC1C[C@H](C)C2(CC[C@H]3[C@@H]4CCc5cc(O)ccc5[C@H]4CC[C@@]32C)O1 (some centres unmarked)
Ans. 6.32

====

# Tested system: ERβ (Homo sapiens (Human))
# Method description: TR-FRET ERβ binding assay
# Experimental context: TR-FRET tracer displacement
pIC50: −log10 of the molar value.
Attribute measured: pIC50

Take a look at these entries with their results.
Compound: CCC1CCC(c2ccc(O)cc2)CC1 (centres unmarked) [RKP-231 IF]
pIC50: 7.82
--
Compound: OC[C@H]1C=CCC(c2ccc(O)cc2)C=C1 (some centres unmarked) [RKP-35c]
pIC50: 6.42
--
Compound: OCCC1CCCC(c2ccc(O)cc2)CC1 (centres unmarked) [ISP-248]
pIC50: 7.43

[I] OCC=C1CCC(c2ccc(O)cc2)CC1 (centres unmarked) [RKP-228]
[II] OCC1CCC[C@@H](c2ccc(O)cc2)CC1 (some centres unmarked) [ISP-163]
Qu. I would appreciate it if you could say which entry, I or II , has the lower pIC50 value. # reply format: chosen label
Ans. I
(I: 6.28, II: 7.63)

Cited source for all entries: patent US10570077B2
